Target: T1, Human C5 (human, UniProt P01031 19-1676)
T1 construct: The natural protein has a beta and an alpha chain; also called complement factor 5; complement component 5
Test: SPR, mAb captured by anti-hFc, 37C
MEASURED_PROPERTY: kon (M⁻¹ s⁻¹)
Respond numerically; units are M⁻¹ s⁻¹ and should not be typed.

Check out these entries, answers already filled in.
binder="H4H12166P2 (antibody, human IgG4, V domains shown, human IgG4 Fc with S108P hinge mutation) VH: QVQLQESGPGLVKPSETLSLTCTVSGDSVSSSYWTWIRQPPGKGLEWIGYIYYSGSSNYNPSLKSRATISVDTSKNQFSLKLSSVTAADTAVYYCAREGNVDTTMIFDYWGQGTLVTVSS VL: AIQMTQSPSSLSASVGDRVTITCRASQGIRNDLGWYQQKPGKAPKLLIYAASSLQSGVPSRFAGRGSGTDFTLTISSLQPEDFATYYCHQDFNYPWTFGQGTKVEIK" reported_value=950000
binder="H4H12166P10 (antibody, human IgG4, V domains shown, human IgG4 Fc with S108P hinge mutation) VH: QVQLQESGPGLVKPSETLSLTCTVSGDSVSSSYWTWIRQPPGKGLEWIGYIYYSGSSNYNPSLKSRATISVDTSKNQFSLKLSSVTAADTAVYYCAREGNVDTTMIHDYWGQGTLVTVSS VL: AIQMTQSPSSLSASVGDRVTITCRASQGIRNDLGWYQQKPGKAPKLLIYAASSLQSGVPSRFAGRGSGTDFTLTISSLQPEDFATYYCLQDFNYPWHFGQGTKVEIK" reported_value=227000

Please find the next binder below.
Given H4H12159P (antibody, human IgG4, V domains shown) VH: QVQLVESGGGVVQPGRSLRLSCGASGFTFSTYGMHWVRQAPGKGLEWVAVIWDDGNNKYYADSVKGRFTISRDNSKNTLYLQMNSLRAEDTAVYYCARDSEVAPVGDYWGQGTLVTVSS VL: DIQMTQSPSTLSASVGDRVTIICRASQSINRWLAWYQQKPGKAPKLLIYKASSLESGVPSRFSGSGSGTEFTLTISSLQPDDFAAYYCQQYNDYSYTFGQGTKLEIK , state its recorded kon.
1.04e+06
